target: Glutamate receptor 4 (Rattus norvegicus, UniProt P19493); assay: Displacement of [3H]-AMPA from AMPA in rat brain membrane preincubated for 15 mins followed by [3H]-AMPA addition and measured after 40 mins by scintillation counting method; format: cell membranes
Sequence (P19493 whole entry): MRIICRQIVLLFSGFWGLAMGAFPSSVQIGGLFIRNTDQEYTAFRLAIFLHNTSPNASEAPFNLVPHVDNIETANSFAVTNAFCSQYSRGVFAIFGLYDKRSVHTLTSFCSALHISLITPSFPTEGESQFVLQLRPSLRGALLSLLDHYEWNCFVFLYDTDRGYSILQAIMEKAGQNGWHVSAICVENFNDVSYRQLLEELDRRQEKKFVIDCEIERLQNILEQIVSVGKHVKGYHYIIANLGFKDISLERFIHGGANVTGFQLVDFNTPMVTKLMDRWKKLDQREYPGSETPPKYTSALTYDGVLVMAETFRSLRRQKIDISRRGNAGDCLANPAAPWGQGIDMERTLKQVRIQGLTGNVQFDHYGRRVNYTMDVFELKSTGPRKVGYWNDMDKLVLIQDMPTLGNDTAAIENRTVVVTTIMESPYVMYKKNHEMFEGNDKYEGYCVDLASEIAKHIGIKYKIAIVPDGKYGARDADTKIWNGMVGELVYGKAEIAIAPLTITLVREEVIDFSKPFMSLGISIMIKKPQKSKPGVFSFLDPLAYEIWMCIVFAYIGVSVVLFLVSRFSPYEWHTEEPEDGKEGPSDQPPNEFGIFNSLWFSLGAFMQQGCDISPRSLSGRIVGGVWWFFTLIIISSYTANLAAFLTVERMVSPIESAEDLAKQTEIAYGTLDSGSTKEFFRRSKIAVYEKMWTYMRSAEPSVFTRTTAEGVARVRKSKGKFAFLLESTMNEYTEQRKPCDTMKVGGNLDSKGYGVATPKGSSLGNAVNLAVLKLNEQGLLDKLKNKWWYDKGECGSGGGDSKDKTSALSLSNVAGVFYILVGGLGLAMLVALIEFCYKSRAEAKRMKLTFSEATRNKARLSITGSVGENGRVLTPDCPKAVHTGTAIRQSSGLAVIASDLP
Please respond with reported IC50 for every item in the list.

For the compound C[C@H](CCC[C@@H](C)[C@H]1CN[C@H](C(=O)O)[C@H]1CC(=O)O)C(=O)O , what IC50 is on record?
> 100 µM

Please report the recorded IC50 for C/C(=C/C=C/[C@H](C)C(=O)O)[C@H]1CN[C@H](C(=O)O)[C@H]1CC(=O)O .
5.7 µM

Dear colleague, I am looking for the recorded IC50 of the following compound: C/C(=C/CC[C@@H](C)C(=O)O)[C@H]1CN[C@H](C(=O)O)[C@H]1CC(=O)O
3.6 µM

Item C/C(=C/C=C\[C@@H](C)C(=O)O)[C@H]1CN[C@H](C(=O)O)[C@H]1CC(=O)O has what recorded IC50?
17 µM

What value of IC50 has been recorded for this entry: C/C(=C\C=C\[C@@H](C)C(=O)O)[C@H]1CN[C@H](C(=O)O)[C@H]1CC(=O)O [DOMORIC ACID]
12 µM

Fill in: IC50 of C/C(=C\C=C/[C@@H](C)C(=O)O)[C@H]1CN[C@H](C(=O)O)[C@H]1CC(=O)O is ___
32 µM
